Biological target: SARS-CoV-2 Wuhan-Hu-1 RBD (SARS-CoV-2, Wuhan-Hu-1 (GenBank …, UniProt P0DTC2))
Assay: BLI
Conditions: both partners purified
parameter-measured: binding result

>>> observed("JR162 (antibody, V domains shown) VH: EVQLLESGGGLVQQGGSLRLSCAASGFTFSGHAMSWVRQAPGEGLEWVSGISDGGGSTYYADSVRGRFTISRDNSKNTLYLQMNSLRAEDTAVYYCARRGGYCTNTICYTRYYYMDVWGKGTTVTVSS VL: DIQMTQSPSSVSASVGDRVTITCRSSQDISSWLAWYQQKPGKAPKLLIFAASSLQSGVPSRFSGSGSGTDFTLTISSLQPEDFATYYCQQANSFPLTFGGGTKVEI")
"binds"
>>> observed("JR062 (antibody, V domains shown) VH: EVQLVESGGGLIQPGGSLRLSCAASGFSVSNNYMNWVRQAPGKGLEWLSVIYNAGTTYYAGSVKGRFTISKDNSKNTLYLQLNSLRPEDTAVYYCARGHTGVAALMTGAFDIWGQGTMVTVSS VL: QSALTQPPSASGSPGQSVTISCTGTSSDVGGYDYVSWYQQYPGKAPKLMIYEVSKRPSGVPDRFSGSKSGNTASLTVSGLQAEDEADYYCSSYAGNNNWVFGGGTKLTVL")
"binds"

FYI, the data here is from paper PMC9253517.
